- Tgt: dihydroorotase (Mesocricetus auratus)
- Construct: purified by an established procedure from a mutant hamster cell line which overproduces the target enzyme; endogenous in cells; host or cells: mutant hamster cell line overproducing the enzyme more than 100-fold; enzyme purified from these cells
- Sequence (P08955 whole entry): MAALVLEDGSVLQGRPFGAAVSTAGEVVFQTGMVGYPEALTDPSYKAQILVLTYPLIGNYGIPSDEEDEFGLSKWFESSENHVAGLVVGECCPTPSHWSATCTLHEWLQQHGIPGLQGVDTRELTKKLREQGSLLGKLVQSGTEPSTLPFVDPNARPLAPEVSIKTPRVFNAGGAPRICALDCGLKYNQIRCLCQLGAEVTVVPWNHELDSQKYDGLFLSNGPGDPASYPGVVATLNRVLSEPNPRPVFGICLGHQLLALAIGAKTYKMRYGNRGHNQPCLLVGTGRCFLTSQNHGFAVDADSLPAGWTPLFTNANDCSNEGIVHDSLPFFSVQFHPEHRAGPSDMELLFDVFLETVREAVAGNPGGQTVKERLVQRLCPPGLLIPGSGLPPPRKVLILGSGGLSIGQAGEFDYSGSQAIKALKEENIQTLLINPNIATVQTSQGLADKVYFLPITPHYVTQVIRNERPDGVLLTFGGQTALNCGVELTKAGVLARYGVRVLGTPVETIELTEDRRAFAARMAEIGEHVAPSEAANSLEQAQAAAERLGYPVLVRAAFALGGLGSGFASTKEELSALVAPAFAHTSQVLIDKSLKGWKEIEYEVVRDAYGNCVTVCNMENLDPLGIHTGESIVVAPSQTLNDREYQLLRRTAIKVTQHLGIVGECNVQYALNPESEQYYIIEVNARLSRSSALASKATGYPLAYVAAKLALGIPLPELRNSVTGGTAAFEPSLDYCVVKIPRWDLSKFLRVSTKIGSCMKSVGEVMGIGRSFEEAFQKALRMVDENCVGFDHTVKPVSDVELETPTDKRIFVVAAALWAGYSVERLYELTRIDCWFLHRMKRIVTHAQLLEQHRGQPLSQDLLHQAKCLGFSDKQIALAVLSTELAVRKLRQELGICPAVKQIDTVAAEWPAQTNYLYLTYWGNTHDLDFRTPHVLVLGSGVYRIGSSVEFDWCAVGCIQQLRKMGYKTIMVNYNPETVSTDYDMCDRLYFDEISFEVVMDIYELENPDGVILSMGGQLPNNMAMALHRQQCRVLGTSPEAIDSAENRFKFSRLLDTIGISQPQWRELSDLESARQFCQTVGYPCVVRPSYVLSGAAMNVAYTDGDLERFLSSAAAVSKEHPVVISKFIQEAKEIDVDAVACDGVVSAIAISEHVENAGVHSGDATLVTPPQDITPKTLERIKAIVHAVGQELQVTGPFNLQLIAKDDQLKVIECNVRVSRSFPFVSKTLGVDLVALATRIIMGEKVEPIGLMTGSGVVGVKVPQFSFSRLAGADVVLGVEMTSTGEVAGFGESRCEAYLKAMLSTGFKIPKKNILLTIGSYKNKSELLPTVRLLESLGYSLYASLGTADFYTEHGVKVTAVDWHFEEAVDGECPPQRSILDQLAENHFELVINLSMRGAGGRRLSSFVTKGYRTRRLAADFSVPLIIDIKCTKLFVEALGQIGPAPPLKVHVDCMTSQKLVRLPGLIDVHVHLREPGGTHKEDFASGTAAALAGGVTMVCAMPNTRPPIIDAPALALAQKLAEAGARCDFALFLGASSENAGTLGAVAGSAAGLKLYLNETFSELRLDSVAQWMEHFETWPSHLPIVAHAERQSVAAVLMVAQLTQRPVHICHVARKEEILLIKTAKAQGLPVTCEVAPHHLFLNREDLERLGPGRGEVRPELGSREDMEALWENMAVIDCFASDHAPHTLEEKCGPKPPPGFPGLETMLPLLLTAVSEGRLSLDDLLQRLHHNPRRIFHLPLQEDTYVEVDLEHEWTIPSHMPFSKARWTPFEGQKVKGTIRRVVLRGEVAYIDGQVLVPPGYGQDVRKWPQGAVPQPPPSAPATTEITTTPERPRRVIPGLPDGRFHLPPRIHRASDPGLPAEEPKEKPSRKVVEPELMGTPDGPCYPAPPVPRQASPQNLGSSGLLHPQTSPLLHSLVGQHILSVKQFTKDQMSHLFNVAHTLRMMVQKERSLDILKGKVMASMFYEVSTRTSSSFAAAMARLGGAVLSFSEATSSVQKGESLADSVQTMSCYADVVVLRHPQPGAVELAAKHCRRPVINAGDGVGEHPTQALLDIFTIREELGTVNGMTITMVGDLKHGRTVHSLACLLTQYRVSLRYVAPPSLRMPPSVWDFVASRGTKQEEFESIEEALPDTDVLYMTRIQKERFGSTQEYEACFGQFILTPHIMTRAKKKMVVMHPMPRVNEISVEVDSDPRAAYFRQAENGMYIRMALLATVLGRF
- Test name: Dihydroorotase inhibition assay (conversion of L-[14C]dihydroorotate to N-[14C]carbamyl-L-aspartate)
- Type: biochemical, hamster
- Measurement parameters: HDDP 0 - 5 µM; pH 7.4, 12.5 µM L-[¹⁴C]dihydroorotate; no ZnCl₂ mentioned
Recorded endpoint: Ki (nM)
Your answer is read as nM, so omit the unit and give the number.

Which measured Ki value corresponds to O=C1NC(C(=O)O)=CC(C(=O)O)N1 (stereo not shown) ?
480

###

- Tgt: dihydroorotase (Mesocricetus auratus)
- Construct: purified by an established procedure from a mutant hamster cell line which overproduces the target enzyme; endogenous in cells; host or cells: mutant hamster cell line overproducing the enzyme more than 100-fold; enzyme purified from these cells
- Test name: Dihydroorotase inhibition assay (conversion of L-[14C]dihydroorotate to N-[14C]carbamyl-L-aspartate)
- Assay type: biochemical, hamster
- Measurement parameters: TDHO containing a 30-fold molar excess of ZnCl₂; pH 7.4, 12.5 µM L-[¹⁴C]dihydroorotate
Recorded endpoint: pKi
The scale used: pKi is minus the common logarithm of the concentration in molar units.

Which measured pKi value corresponds to O=C1NC(=S)CC(C(=O)O)N1 (stereo not shown) ?
7.28
